Kindly supply the reported inhibition at 100 µg/mL values for the records listed here.
Tested on: Staphylococcus aureus
Test: Antimicrobial screening, resazurine test
Assay type: cell-based
Settings: Staphylococcus aureus, S. aureus, c = 100 µg·mL-1; read-out: Inhibition of the microorganism
Respond with the bare value in %.

Given CC1(C)C=C2[C@H]3CC[C@@H]4[C@@]5(C)CCC(=O)C(C)(C)[C@@H]5CC[C@@]4(C)[C@]3(C)CC[C@@]2(C(=O)O)CC1 [1c, moronic acid, reference compound] , respond with its inhibition at 100 µg/mL. 10

Given CC1(C)CC[C@]2(C(=O)O)CC[C@]3(C)C(=CC[C@@H]4[C@@]5(C)CC[C@H](O)C(C)(C)[C@@H]5CC[C@]43C)[C@@H]2C1 [1a, Oleanolic acid, reference compound] , respond with its inhibition at 100 µg/mL. 33

Given CC1(C)C=C2C3CC[C@@H]4[C@@]5(C)CC[C@H](OCc6cn(CCOCCOCCOCCNC(=O)[C@]78CCC(C)(C)C=C7C7CC[C@@H]9[C@@]%10(C)CC[C@H](O)C(C)(C)[C@@H]%10CC[C@@]9(C)[C@]7(C)CC8)nn6)C(C)(C)[C@@H]5CC[C@@]4(C)[C@]3(C)CC[C@@]2(C(=O)O)CC1 (stereo partly shown) [8b] , respond with its inhibition at 100 µg/mL. 77

Given CC1(C)C=C2[C@H]3CC[C@@H]4[C@@]5(C)CCC(=O)C(C)(C)[C@@H]5CC[C@@]4(C)[C@]3(C)CC[C@@]2(C(=O)NCCOCCOCCOCCn2cc(COC(=O)[C@]34CCC(C)(C)C=C3[C@H]3CC[C@@H]5[C@@]6(C)CCC(=O)C(C)(C)[C@@H]6CC[C@@]5(C)[C@]3(C)CC4)nn2)CC1 [4c] , respond with its inhibition at 100 µg/mL. 76

Given CC1(C)CC[C@]2(C(=O)O)CC[C@]3(C)C(=CC[C@@H]4[C@@]5(C)CC[C@H](OCc6cn(CCOCCOCCOCCNC(=O)[C@]78CCC(C)(C)CC7C7=CC[C@@H]9[C@@]%10(C)CC[C@H](O)C(C)(C)[C@@H]%10CC[C@@]9(C)[C@]7(C)CC8)nn6)C(C)(C)[C@@H]5CC[C@]43C)C2C1 (stereo partly shown) [8a] , respond with its inhibition at 100 µg/mL. 68

Given CC1(C)C=C2[C@H]3CC[C@@H]4[C@@]5(C)CCC(=O)C(C)(C)[C@@H]5CC[C@@]4(C)[C@]3(C)CC[C@@]2(C(=O)NCCOCCOCCOCCn2cc(CO[C@H]3CC[C@]4(C)[C@H]5CC=C6C7CC(C)(C)CC[C@]7(C(=O)O)CC[C@@]6(C)[C@]5(C)CC[C@H]4C3(C)C)nn2)CC1 (stereo partly shown) [6c] , respond with its inhibition at 100 µg/mL. 27
